- measured_target: T1, rat α-CGRP (1-37) (rat, C-terminal amide; N-terminal biotin when captured on the SA chip)
- T1 construct: also called rat α (1-37); α-rat
- T1 peptide: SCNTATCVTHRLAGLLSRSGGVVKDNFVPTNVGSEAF
- test_description: Biacore, 37°C, Fab over CGRP on SA chip
endpoint: koff (s⁻¹)
Answers are plain numbers, in s⁻¹.

Consider the reported koff for these binders:
G1 variant M33 Fab (Fab, V domains shown, Fab; constant domains as m1) VH: EVQLVESGGGLVQPGGSLRLSCAASGFTFSNYWISWVRQAPGKGLEWVAEIRSKSDNGATHYAEAVKGRFTISRDNAKNSLYLQMNSLRAEDTAVYYCTVYFDYGLAIQNYWGQGTLVTVSS VL: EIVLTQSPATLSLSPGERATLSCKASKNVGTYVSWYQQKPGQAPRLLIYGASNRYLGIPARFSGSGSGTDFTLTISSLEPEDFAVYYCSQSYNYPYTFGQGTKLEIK: 0.00922
G1 variant M45 Fab (Fab, V domains shown, Fab; constant domains as m1) VH: EVQLVESGGGLVQPGGSLRLSCAASGFTFSNYWISWVRQAPGKGLEWVAEIRSKSDNEATHYADAVKGRFTISRDNAKNSLYLQMNSLRAEDTAVYYCTVYFDYGLAIQNYWGQGTLVTVSS VL: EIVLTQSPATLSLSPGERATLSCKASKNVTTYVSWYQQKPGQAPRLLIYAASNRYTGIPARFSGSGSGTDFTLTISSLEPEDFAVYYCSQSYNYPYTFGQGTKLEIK: 0.00558
G1 variant M21 Fab (Fab, V domains shown, Fab; constant domains as m1) VH: EVQLVESGGGLVQPGGSLRLSCAASGFTFSNYWISWVRQAPGKGLEWVAEIRSESDASATHYAEAVKGRFTISRDNAKNSLYLQMNSLRAEDTAVYYCSAYFDYGLAIQNYWGQGTLVTVSS VL: EIVLTQSPATLSLSPGERATLSCKASKWVTTYVSWYQQKPGQAPRLLIYGASNRYLGIPARFSGSGSGTDFTLTISSLEPEDFAVYYCSQSYNYPYTFGQGTKLEIK: 0.000695
G1 variant M4 Fab (Fab, V domains shown, Fab; constant domains as m1) VH: EVQLVESGGGLVQPGGSLRLSCAASGFTFSNYWISWVRQAPGKGLEWVAEIRSESDASATHYAEAVKGRFTISRDNAKNSLYLQMNSLRAEDTAVYYCAVYFDYGLAIQNYWGQGTLVTVSS VL: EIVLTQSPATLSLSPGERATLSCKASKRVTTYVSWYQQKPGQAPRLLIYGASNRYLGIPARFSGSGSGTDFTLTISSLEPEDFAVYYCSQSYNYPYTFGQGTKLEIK: 0.00152

Task: Which koff is reported for this binder? G1 variant M63 Fab (Fab, V domains shown, Fab; constant domains as m1) VH: EVQLVESGGGLVQPGGSLRLSCAASGFTFSNYWISWVRQAPGKGLEWVAEIRSKSDNTATHYAEAVKGRFTISRDNAKNSLYLQMNSLRAEDTAVYYCTVYFDYGLAIQNYWGQGTLVTVSS VL: EIVLTQSPATLSLSPGERATLSCKASKNVGTYVSWYQQKPGQAPRLLIYAASNRYLGIPARFSGSGSGTDFTLTISSLEPEDFAVYYCSQSYNYPYTFGQGTKLEIK
Result: 0.00265
